Catalogue of compounds with associated fold change
- assay-info: A340 optical interference by library compounds – biochemical, MLSMR library, data from PS, PMK, MK assays, artefact control, profiling panel (AID 708);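 also: initial absorbance extrapolated from kinetic A340 decline of NADH oxidation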
- measurement-setup: compound absorbance at 340 nm, fold over control; at 10 µM; active compounds read high
In all, about 65,000 compounds went through this assay and fewer than 10 were called active. Not all results are given here.
measured-property: fold change

> print(dat)
                                    compound  measured.property  obs.value
 1           CNC(=O)c1cc2c(ccc3ccccc32)oc1=N        fold change       1.04
 2  CCn1c(CSc2nncn2-c2ccc(OC)cc2)nc2cc(S(=O)(=O)N(C)C)ccc21        fold change       0.96
 3  CCc1cc(=O)oc2cc(C)cc(OC(C)C(=O)O)c12 (stereo unspecified)        fold change       1.04
 4  CC(=O)c1c(N2CCOCC2)nc(=S)n(Cc2ccccc2)c1C        fold change       1.06
 5    COc1cccc(OCCOc2cccc(/C=N/n3cnnc3)c2)c1        fold change       1.05
 6  Cc1ccc(C(=O)NCC2CCCO2)o1 (stereo unspecified)        fold change       1.04
 7  COc1ccc(C2CC(c3ccc(C)cc3)Nc3nc(N)nn32)cc1 (stereo unspecified)        fold change       1.02
 8   Cc1cc(-n2nc(C)cc2C)n2ncc(-c3ccccc3)c2n1        fold change       1.03
 9  COc1ccccc1NC1=NC(c2ccc(Cl)cc2)N=C(N)N1 (stereo unspecified)        fold change       1.01
10  Cc1ccnc(N2C(=O)c3ccccc3C2Nc2ccc3c(c2)OCCO3)c1 (stereo unspecified)        fold change       1.06
11  Cc1nnc(SCc2ccc(C(=O)c3ccc(Cl)cc3)o2)n1-c1ccccc1        fold change       1.14
